composite z-score listing for selected compounds.
method: binders of probe aHhip on microarray, primary screen, stem cell growth factor project, biochemical, small-molecule microarray, fluorescence 635/667 (AID 1087);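 note: score merges spot fluorescence at 667nm with spot signal to noise ratio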
experimental-parameters: higher = more signal

[
  {
    "compound": "COCC(=C=CC[C@H](O)c1ccccc1OCCO)C[C@H](O)c1cc(Cl)cc(Cl)c1O",
    "composite z-score": -0.0994
  },
  {
    "compound": "COC(=O)[C@@]1(Cc2ccc(F)cc2)[C@@H]2[C@@H](CC(=O)[C@H]2CC(=O)C(=O)N(C)C)CN1C(=O)c1ccccc1",
    "composite z-score": 0.33
  },
  {
    "compound": "O=C1[C@H]2C=C(Br)[C@H](C[C@@H]2OCCCCO)[C@@]12CO2",
    "composite z-score": -0.0237
  },
  {
    "compound": "CC(=O)N1Cc2ccccc2C[C@@]2(COC(c3ccc(OCCCO)cc3)=N2)C1=O",
    "composite z-score": -0.21
  },
  {
    "compound": "O=C1OCCC/C=C\\[C@H]2OC34C=CCN(Cn5nnc6ccccc65)C(=O)[C@H]3N(CCCCCCO)C(=O)[C@@H]4C12 (stereo partly specified)",
    "composite z-score": -0.273
  },
  {
    "compound": "C=CCN(Cc1ccccc1)C(=O)C(c1cccs1)N(CCOCCO)C(=O)/C=C\\C(=O)O (stereo unspecified)",
    "composite z-score": -0.341
  },
  {
    "compound": "C=CCC(OC(C)=O)[C@@H]1[C@@H](N(Cc2ccc(-c3cccc(C(F)(F)F)c3)o2)C(=O)Cc2ccc(F)cc2)c2cc(OCCCO)ccc2N1C(=O)Cc1ccc(OC)cc1 (stereo partly specified)",
    "composite z-score": -0.164
  },
  {
    "compound": "COc1ccc(C(=O)O[C@H]2CC[C@]3(C)C4=C(CCC3C2(C)C)[C@]2(C)CC[C@H]([C@H](C)CCCC(C)C)[C@@]2(C)CC4)cc1 (stereo partly specified)",
    "composite z-score": 0.0749
  },
  {
    "compound": "CC(C)c1ccc(NN2C(C(O)C(c3ccccc3)c3ccccc3)C=CC3C(=O)N(c4ccccc4)C(=O)C32)cc1 (stereo unspecified)",
    "composite z-score": 0.452
  },
  {
    "compound": "COC(=O)[C@@]1(Cc2ccc(F)cc2)[C@H]2c3cc(C(=O)N(C)C)n(Cc4nc5ccccc5[nH]4)c3C[C@H]2CN1C(=O)c1ccccc1",
    "composite z-score": -0.139
  },
  {
    "compound": "O=C(NCc1ccccc1)[C@@]1(CCS(=O)(=O)c2ccccc2)N=C(c2ccc(OCCCO)cc2)O[C@H]1c1ccccc1",
    "composite z-score": 0.0274
  },
  {
    "compound": "[N-]=[N+]=NCc1ccccc1[C@@H]1OC(c2ccc(OCCCO)cc2)=N[C@]1(CCS(=O)(=O)c1ccccc1)C(=O)NCCN1CCOCC1",
    "composite z-score": 0.156
  },
  {
    "compound": "COc1ccc(C#Cc2ccc3c(c2)[C@]2(C(=O)N3)[C@H](c3ccccc3OCCO)N3[C@H](c4ccccc4)[C@H](c4ccccc4)OC(=O)[C@H]3[C@@H]2C(=O)O)cc1",
    "composite z-score": 0.132
  },
  {
    "compound": "O=C1NC(=O)C2C1C=CC(C(O)c1ccccc1)N2Nc1ccc(Cl)cc1Cl (stereo unspecified)",
    "composite z-score": -0.156
  },
  {
    "compound": "CN1C(=O)C2C=CC(C(O)c3cccs3)N(Nc3ccccc3)C2C1=O (stereo unspecified)",
    "composite z-score": 0.261
  },
  {
    "compound": "COC(=O)[C@@]1(Cc2ccc(F)cc2)[C@H]2c3cc(C(=O)N(C)C)n(CC4CC4)c3C[C@H]2CN1C(=O)c1ccccc1",
    "composite z-score": 0.741
  }
]
